A collection of compounds and their measured pIC50
# Test system: Neutrophil elastase activity in U937 cells
# experiment description: Neutrophil elastase activity in U937 cytosolic lysate after incubation with test compound
# Type: cell-based
# assay setup: Homo sapiens, U-937, U937 cells incubated 48 hours with compound, read-out: Reduction of NE-activity in U937 cells IC50
# Description: Determination of Neutrophil Elastase Activity in U937 Cytosolic Lysate Preparation after Incubation with Test Compound Optiplate 384F were purchased from PerkinElmer (Prod. No. #6007270). […] Frozen lysates were thawn at 37° C. for 10 minutes and stored on ice. Protein content was determined with Bradford protein assay. […] The increase in fluorescence (Ex360 nm/Em 460 nm) is determined over 30 minutes with a Molecular Device Spectramax M5 Fluorescence Reader. […]
pIC50: −log10 of the molar value.
quantity: pIC50

[[record]]
structure_string = "N#C[C@H](Cc1ccc(-c2cnn(CC3CCOCC3)c2)cc1F)NC(=O)C12CCC(CC1)CN2"
quantity = "pIC50"
endpoint_result = 7.24

[[record]]
structure_string = "N#C[C@H](Cc1ccc(-c2cccc(C(N)=O)c2)cc1F)NC(=O)C12CCC(CC1)CN2"
quantity = "pIC50"
endpoint_result = 6.94

[[record]]
structure_string = "CN1C(=O)Cc2ccc(-c3ccc(C[C@@H](C#N)NC(=O)C45CCC(CC4)CN5)cc3)cc21"
quantity = "pIC50"
endpoint_result = 7.57

[[record]]
structure_string = "COCCN1C(=O)Cc2ccc(-c3ccc(C[C@@H](C#N)NC(=O)C45CCC(CC4)CN5)c(F)c3)cc21"
quantity = "pIC50"
endpoint_result = 7.89

[[record]]
structure_string = "N#C[C@H](Cc1ccc(-c2ccc3c(c2)NC(=O)C3)cc1F)NC(=O)C12CCC(CC1)CN2"
quantity = "pIC50"
endpoint_result = 7.48

[[record]]
structure_string = "CN1Cc2cc(-c3ccc(C[C@@H](C#N)NC(=O)C45CCC(CC4)CN5)cc3)ccc2C1=O"
quantity = "pIC50"
endpoint_result = 7.07

[[record]]
structure_string = "N#C[C@H](Cc1ccc(-c2csc(C(N)=O)c2)cc1F)NC(=O)C12CCC(CC1)CN2"
quantity = "pIC50"
endpoint_result = 7.14

[[record]]
structure_string = "CC1(C)OC(=O)c2ccc(-c3ccc(C[C@@H](C#N)NC(=O)C45CCC(CC4)CN5)c(F)c3)cc21"
quantity = "pIC50"
endpoint_result = 8.15

[[record]]
structure_string = "N#C[C@H](Cc1ccc(-c2ccc3c(c2)CCNC3=O)cc1F)NC(=O)C12CCC(CC1)CN2"
quantity = "pIC50"
endpoint_result = 8.15

[[record]]
structure_string = "CS(=O)(=O)c1ccc(-c2ccc(C[C@@H](C#N)NC(=O)C34CCC(CC3)CN4)c(F)c2)cc1C#N"
quantity = "pIC50"
endpoint_result = 7.13

[[record]]
structure_string = "CS(=O)(=O)c1ccc(-c2ccc(C[C@@H](C#N)NC(=O)C34CCC(CC3)CN4)c(F)c2)cc1"
quantity = "pIC50"
endpoint_result = 7.32

[[record]]
structure_string = "CS(=O)(=O)c1cc(-c2ccc(C[C@@H](C#N)NC(=O)C34CCC(CC3)CN4)c(F)c2)ccc1C#N"
quantity = "pIC50"
endpoint_result = 7.19

[[record]]
structure_string = "CN1C(=O)Cc2ccc(-c3ccc(C[C@@H](C#N)NC(=O)C45CCC(CC4)CN5)c(F)c3)cc21"
quantity = "pIC50"
endpoint_result = 7.89


Values from patent US8889708B2
